Measured values drawn from patent EP0791603A2 for this set.

Exercise: state measured Yeast Assay Antagonist for each of the compounds provided.
- subject.of.test: rat somatostatin receptor subtype 2 (SSTR2) (Rattus norvegicus, UniProt P30680)
- Construct: expressed in transfected cells; host or cells: Saccharomyces cerevisiae LY364
- Sequence (P30680 whole entry): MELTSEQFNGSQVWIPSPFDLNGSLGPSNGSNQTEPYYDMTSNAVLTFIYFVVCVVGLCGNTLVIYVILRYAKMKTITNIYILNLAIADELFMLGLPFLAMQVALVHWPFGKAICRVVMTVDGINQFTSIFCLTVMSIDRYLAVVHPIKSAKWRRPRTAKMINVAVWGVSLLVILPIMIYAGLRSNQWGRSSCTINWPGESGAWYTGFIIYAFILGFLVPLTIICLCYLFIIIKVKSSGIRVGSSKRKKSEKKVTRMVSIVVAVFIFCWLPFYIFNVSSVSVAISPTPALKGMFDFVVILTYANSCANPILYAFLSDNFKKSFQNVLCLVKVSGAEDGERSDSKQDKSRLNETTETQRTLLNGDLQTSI
- protocol.text: Yeast assay, somatostatin antagonist activity (zone of no growth in presence of S-14)
- Format: cell-based
- Design: key: 1 is minimum antagonist activity; 5 is maximum antagonist activity; -: When no activity is observed, the result is indicated by a dash
- conditions: rating on a scale of 1-5 from zone of no growth; 5µL of 1 mg/mL S-14 added to each plate; S. Cerevisiae LY364
- Description: To evaluate the somatostatin antagonist activity of a test compound, the above procedure is followed except on day 3, 5µL of 1 mg/mL of somatostatin, S-14, is added to each plate, before applying the test compound. […] This zone of no growth is measured and the test compound is given an antagonist rating on a scale of 1-5 wherein 1 is minimum antagonist activity and 5 is maximum antagonist activity. […]
Positions of bridges follow the written chain, without caps; N, C: chain ends. Non-standard residues stand in square brackets, D forms with d. Residues, ends and D or L forms follow the SMILES beside them. Phe(4-NO2) = N[C@@H](Cc1ccc([N+](=O)[O-])cc1)C(=O)O
Lab note: jot the number down without any unit.

Task item: Output Yeast Assay Antagonist of CC(=O)N[C@@H](Cc1ccc(I)cc1)C(=O)N[C@@H]1CSSC[C@@H](C(=O)N[C@@H](Cc2ccc(O)cc2)C(N)=O)NC(=O)[C@H]([C@@H](C)O)NC(=O)[C@H](CCCCN)NC(=O)[C@@H](Cc2c[nH]c3ccccc23)NC(=O)[C@H](Cc2ccc(O)cc2)NC1=O
Reply: 1

Task item: Give recorded Yeast Assay Antagonist. C[C@@H](O)[C@@H]1NC(=O)[C@H](CCCCN)NC(=O)[C@@H](Cc2c[nH]c3ccccc23)NC(=O)[C@H](Cc2ccc(O)cc2)NC(=O)[C@H](NC(=O)[C@@H](N)Cc2ccc([N+](=O)[O-])cc2)CSSC[C@@H](C(=O)N[C@@H](Cc2ccc(O)cc2)C(N)=O)NC1=O
Reply: 5

Task item: Provide Yeast Assay Antagonist value for the following compound: C[C@@H](O)[C@@H]1NC(=O)[C@H](CCCNC(=N)N)NC(=O)[C@@H](Cc2c[nH]c3ccccc23)NC(=O)[C@H](Cc2ccc(O)cc2)NC(=O)[C@H](NC(=O)[C@@H](N)Cc2ccc([N+](=O)[O-])cc2)CSSC[C@@H](C(=O)N[C@@H](Cc2ccc(O)cc2)C(N)=O)NC1=O (H-[Phe(4-NO2)][dC]Y[dW]RTCY-NH2; disulfide 2-7 (inferred))
Reply: 2
